# system name: DLG2_3, Q15700
# assay summary: holdup assay
# Set-up: key: below the threshold = too weak to quantify, mostly under pKd 3.1 to 4
# test conditions: plain residues with an end cap or a label only (N-terminal biotin on a linker: ado-ado)
measurement kind: pKd

Would you please look over these solved cases?
PSVGSKKTVL [REELD1, A0A1B0GV85] = below the threshold
STKRKLASAV [NCF1, P14598] = 4.09
DFLSTFHIRI [CIB2, O75838] = below the threshold
GEDRSPPTAL [MKNK1, Q9BUB5] = below the threshold
ARESQKVSHV [FAM110B, Q8TC76] = 3.62
PTPDLPQTRV [KLHDC7A, Q5VTJ3] = 3.91
ARGPPRESEV [FAM110D, Q8TAY7] = 4.54

Would you kindly look at the next entry?
## Input Please report the measured pKd for RFQQRMQTHV [KIRREL1, Q96J84]
## Output 4.48
